# measurementDescription: soluble on expression in E. coli; label from the status in PepcDB or PDB records
readoutKind: soluble on expression in E. coli

Below: 5 sequences and their reported soluble on expression in E. coli.
MAHHHHHHMPSLNNNTIREDVIFKRRVKDVLLRHGGTGGLVKVLIDFNAREAVAARQQRQTTSTDSGSSRTDVGLSHAQLLLFLQDYGVELTPFEAAYLCRAFDDHGSGFISGETFTRHLTGLNERRLRAVKKAWQSLERRNGASGKVSRELLLSTFAAVAAERAHAAAGDPGNPADGAAHDAIATTSFSSPVGGALQSTFGGGHGMHEHLKEAYMTSMMGRGSGFMAKPNAAAGGADGESGEAADRVSYAEYLAFYAGVSPQFATDEAFVTHVLQSWAADDAARPALDETAREWGPDGDPLALDGPRYVKEALNLELGISSKSYNYSHMQREHPYVEPLPPLNRPDIMATTMQRTYVPFDKAAQMLADPLVTRRGQSK :: not soluble
MKLIRGIHNLSQAPQEGCVLTIGNFDGVHRGHRALLQGLQEEGRKRNLPVMVMLFEPQPLELFATDKAPARLTRLREKLRYLAECGVDYVLCVRFDRRFAALTAQNFISDLLVKHLRVKFLAVGDDFRFGAGREGDFLLLQKAGMEYGFDITSTQTFCEGGVRISSTAVRQALADDNLALAESLLGHPFAISGRVVHGDELGRTIGFPTANVPLRRQVSPVKGVYAVEVLGLGEKPLPGVANIGTRPTVAGIRQQLEVHLLDVAMDLYGRHIQVVLRKKIRNEQRFASLDELKAQIARDELTAREFFGLTKPA :: soluble
MTLMKSNLIAAAEIDRLDTWAKYTAPMCGSCMSSCCTLPVEVKIKDLIRIGIVDEFERGEPAKNIAKRLQKEGIVERYNQKSEIFTLQRMSNNDCLYLDRKSRLCTIYDKRPDTCRNHPKIGPRPGYCAYKPKPQVRPTNTSSRTLERFLEHHHHHH :: not soluble
GQYDYIKVAVSLMGSAYYVDFAKELSKYALAQGLTFPYDVDERILALQKYDLTQNITKINNRPLLLWHGKKDDVVPFAYSEKLYQTLVEESLADNVEFIIDDNAKHKVSVEGMLQGVSFFEKFL :: not soluble
MSLLAEKLQINSITPHPSVEYWSVCKVEALFETPFLELVYRATQVHRKHFNPRAIQLSTLMSIKTGGCPEDCSYCPQSARYHTGVQNQQLLDVDEIVAKAKIAKARGAGRFCMGAAWRGPKPKDIEKVTEIIKAVKSLGLETCGTFGLLQDGMAEDLKEAGLDYYNHNLDTAPEHYAEVIGTRRFDDRLSTLGKVRKAGLKVCCGGIVGMNETRKERAGLIASLANLDPQPESVPINQLVKVEGTPLADAEELDWTEFVRTIAVARITMPKSYVRLSAGRSGMTEEMQAMCFMAGANSIFYGDKLLVTDNPEEDGDQLLMAKLDLEPETAENKKLEGHHHHHH :: soluble

soluble on expression in E. coli recorded for this sequence, MADTIEVDGKQFAVDEEGYLSNLNDWVPGVADVMAKQDNLELTEEHWDIINFLREYYEEYQIAPAVRVLTKAVGKKLGKEKGNSKYLYSLFPYGPAKQACRFAGLPKPTGCV , is soluble

====

# measurementDescription: soluble on expression in E. coli; label from the status in PepcDB or PDB records
readoutKind: soluble on expression in E. coli

Below: 5 sequences and their reported soluble on expression in E. coli.
EKVKNSDYTFEVDFEGPFFPIVEGVNSFGKRMYRVAPQVLRVPLEKPETRVISDIKNGEVLVYVFIQSPEGVVPVSLNLEGKRFRFFNLEGKWICVFKSFLEDGAHELEITFNGPYGYTFSLKKEIYVIKRVAVPMRGEDGAFDYTVFAEHVVKRGETLWSIANQYGVRVGDIVLINRLEDPDRIVAGQVLKIGRVYFRENPVTIVVNLFSSKLALYYDGVLLKVYPVALGRSDATPPGRYWVLRKEIDPALYWFGEYISPRTPLNGLGTRYLQLSDPTYAIHGTSKPWEIGKRISHGCIRMFNRDVEEIDAFAGVGTEVVVVKEDKEFPERIY :: not soluble
MAEICLITGTPGSGKTLKMVSMMANDEMFKPDENGIRRKVFTNIKGLKIPHTYIETDAKKLPKSTDEQLSAHDMYEWIKKPENIGSIVIVDEAQDVWPARSAGSKIPENVQWLNTHRHQGIDIFVLTQGPKLLDQNLRTLVRKHYHIASNKMGMRTLLEWKICADDPVKMASSAFSSIYTLDKKVYDLYESAEVHT :: soluble
MGSDKIHHHHHHMNPSPLPYFLGCPSWSENAWRDYLYPADANSNQMLGFYSQVFNAVEGNTTFYARPAPGTIARWAQLMPEHFRFTAKFPRDVSHEGDLRDQLEPAFDFTRLMAPLGRRVSPYWLQLPAQFGPARLGELCHFLDQIAVPVAVEVRNQAFFAKGEEERLLNRLLHERGVERICLDPRALFSCTSRDPAVLHAQSKKPKVPPRPAAFSQHPQVRFIGHPELEANHTFLSPWVEKVAAWIEEGRNPYIFLHTSDNRLAAALAQRFHQRLMARLPGLAPLPELPRAPEVEQLGLL :: not soluble
MGSDKIHHHHHHMYFELKENRPHGTPENPFSQYHISDVKRAFQIPVHWHDELEIIYVKQGKLHVTISGENYIGSPKDAFVVSPGSLHLMGSPTGDADYYTFLFPLEYISFQTDDLMEKSILSPLKRGRLMISPQINDTAADICERLIEINEQISGKNAEKTDAANIEAQFETKITLIKFIRKMWRNGLILENGTNGTNTTEKEMITYIRQNYTREISLKEFGAQFHLSEKYISRYFKEHFHITLSQYVNHLRLEHARQLLEESTASVTEVAMCSGYQNVSYFIRSFKKMYGVSPLKYRNFQTLP :: not soluble
MSDNDELQQIAHLRREYTKGGLRRRDLPADPLTLFERWLSQACEAKLADPTAMVVATVDEHGQPYQRIVLLKHYDEKGMVFYTNLGSRKAHQIENNPRVSLLFPWHTLERQVMVIGKAERLSTLEVMKYFHSRPRDSQIGAWVSKQSSRISARGILESKFLELKQKFQQGEVPLPSFWGGFRVSLEQIEFWQGGEHRLHDRFLYQRENDAWKIDRLAP :: soluble

# evaluate next
soluble on expression in E. coli recorded for this sequence, MSGKEEFQTIKERAKRKLERDMGADLLAALNDPKTVEVMLNADGKVWHERLGEPMRYICDMRPSQSQAIIETVAGFHGKEVTRHSPILEGEFPLDGSRFAGQLPPVVAAPTFAIRKRAVAIFTLEQYVEAGIMTREQYEVIKSAVAAHRNILVIGGTGSGKTTLVNAIINEMVAFNPSERVVIIEDTGEIQCAAENAVQYHTSIDVSMTLLLKTTLRMRPDRILVGEVRGPEALDLLMAWNTGHEGGAATLHANNPKAGLSRLAMLISMHPDSPKPIEPLIGEAVHVVVHIARTPSGRRVQEILEVLGYENGQYITKTL , is not soluble
